System: EOL-1
Assay: Cell viability assay (CellTiter-Blue), EOL-1
Format: cell-based
Conditions: Homo sapiens, EOL1, read-out: EC50 EOL-1 μM (lymphoma)
pEC50: −log10 of the molar value.
Recorded Metric: pEC50

# pEC50 (compound: CN(C)CCCOc1ccc(-c2c(F)cnc3[nH]c4cnc(-c5cccnc5)cc4c23)cc1 ) is 7.00 to 9.00

---

Target: Pim-1 (Homo sapiens)
Construct: His6-labelled recombinant full-length human Pim-1, Pim-2 or Pim-3 protein; His6; made in house
Sequence (P11309 whole entry): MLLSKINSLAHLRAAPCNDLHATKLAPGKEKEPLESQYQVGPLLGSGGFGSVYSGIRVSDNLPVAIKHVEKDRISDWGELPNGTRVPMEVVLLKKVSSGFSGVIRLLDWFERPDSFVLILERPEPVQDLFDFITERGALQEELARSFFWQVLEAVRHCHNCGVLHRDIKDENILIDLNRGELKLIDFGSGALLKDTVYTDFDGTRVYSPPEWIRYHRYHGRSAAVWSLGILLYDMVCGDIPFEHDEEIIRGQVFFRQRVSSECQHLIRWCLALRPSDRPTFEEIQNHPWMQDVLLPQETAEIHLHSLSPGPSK
Assay: TR-FRET assay, Pim-1 kinase (phosphorylation of Bad Ser112)
Format: biochemical
Conditions: TR-FRET; ATP 40 μM; read-out: IC50 Pim1
pIC50: −log10 of the molar value.
Each record here notes measured pIC50.

>  <Compound>
CCN(CC)CCN1CCN(c2c(F)cnc3[nH]c4cnc(-c5cccnc5)cc4c23)CC1

>  <pIC50>
7.00 to 9.00

$$$$
>  <Compound>
c1cncc(-c2cc3c(cn2)[nH]c2ncc(-c4ccc(N5CCNCC5)cc4)cc23)c1

>  <pIC50>
7.00 to 9.00

$$$$

The value of pIC50 measured for the compound CCCN(CCC)CCCN1CCN(c2c(F)cnc3[nH]c4cnc(-c5cccnc5)cc4c23)CC1 turned out to be 7.00 to 9.00

Short answer for COc1cnc2[nH]c3cnc(-c4cnn(CCC5CCCCN5C)c4)cc3c2c1 (centres unmarked) : pIC50 was 6.00 to 7.00

Consider c1cncc(-c2cc3c(cn2)[nH]c2ncc(-c4ccc(N5CCNCC5)nc4)cc23)c1 . Its measured pIC50 is 7.00 to 9.00

Briefly, pIC50 measured for O=C(O)CCC(=O)Nc1cccc(-c2c(F)cnc3[nH]c4cnc(-c5cccnc5)cc4c23)c1 : 6.00 to 7.00

Note to self: pIC50 recorded for Fc1cnc2[nH]c3cnc(-c4cccnc4)cc3c2c1N1CCN(CCCN2CCOCC2)CC1 was 7.00 to 9.00

The compound listed as Fc1cnc2[nH]c3cnc(-c4cccnc4)cc3c2c1/C=C/c1ccccc1 shows pIC50 equal to 6.00 to 7.00
